TARGET_UNDER_TEST: T1, DR4 (TRAIL-R1) on cancer cells (human, UniProt O00220 24-468)
T1 sequence: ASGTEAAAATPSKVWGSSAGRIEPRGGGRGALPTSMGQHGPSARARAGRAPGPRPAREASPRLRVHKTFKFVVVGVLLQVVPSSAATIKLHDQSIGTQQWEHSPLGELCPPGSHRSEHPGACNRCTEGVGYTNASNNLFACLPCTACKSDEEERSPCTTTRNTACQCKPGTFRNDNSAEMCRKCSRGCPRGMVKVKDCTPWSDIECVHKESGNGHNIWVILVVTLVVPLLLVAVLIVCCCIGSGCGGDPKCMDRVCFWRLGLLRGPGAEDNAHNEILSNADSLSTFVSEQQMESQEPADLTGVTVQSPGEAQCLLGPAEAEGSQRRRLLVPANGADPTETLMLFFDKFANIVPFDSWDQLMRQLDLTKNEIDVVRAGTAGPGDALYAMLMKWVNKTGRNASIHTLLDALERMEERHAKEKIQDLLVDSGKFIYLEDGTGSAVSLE
TEST_METHOD_NOTES: cell-based or functional assay
Below: a set of entries, each annotated with reported ED50 ST486 (cell killing).
Give just the number in nM; leave the unit off.

Use the examples below as a reference point.
Returns the measured ED50 ST486 (cell killing) for the input binder. Input: 71p88P1G4 (designed binder) EPPTQKPKKIVNAKKDVVNTKMFEELKSRLDTLAQEVALLKEQQALQTVCLKGTKVHMKCFLAFTQTKTFHEASEDCISRGGTLSTPQTGSENDALYEYLRQSVGNEAEIWLGLNGYMTGVGWVDMTGARIAYKNWETEITAQPDGGRSWKWENCAVLSGAANGKWFDKRCRDQLPYICQFGIV 75

Returns the measured ED50 ST486 (cell killing) for the input binder. Input: 29p61P1E11 (designed binder, ATRIMER; also called 029-61.1E11) EPPTQKPKKIVNAKKDVVNTKMFEELKSRLDTLAQEVALLKEQQALQTVCLKGTKVHMKCFLAFTQTKTFHEASEDCISRGGTLSTPQTGSENDALYEYLRQSVGNEAEIWLGLNGWLEGVGWVDMTGARIAYKNWETEITAQPDGGWPFSNENCAVLSGAANGKWFDKRCRDQLPYICQFGIV 217

Returns the measured ED50 ST486 (cell killing) for the input binder. Input: 71p88P1A3 (designed binder) EPPTQKPKKIVNAKKDVVNTKMFEELKSRLDTLAQEVALLKEQQALQTVCLKGTKVHMKCFLAFTQTKTFHEASEDCISRGGTLSTPQTGSENDALYEYLRQSVGNEAEIWLGLNGYLAGTGWVDMTGARIAYKNWETEITAQPDGGRVLAWENCAVLSGAANGKWFDKRCRDQLPYICQFGIV 170

Returns the measured ED50 ST486 (cell killing) for the input binder. Input: 71p88P1B3 (designed binder) EPPTQKPKKIVNAKKDVVNTKMFEELKSRLDTLAQEVALLKEQQALQTVCLKGTKVHMKCFLAFTQTKTFHEASEDCISRGGTLSTPQTGSENDALYEYLRQSVGNEAEIWLGLNGWLEGSGWVDMTGARIAYKNWETEITAQPDGGVQWRWENCAVLSGAANGKWFDKRCRDQLPYICQFGIV 3.2

New cases:
Returns the measured ED50 ST486 (cell killing) for the input binder. Input: 71p88P1G1 (designed binder) EPPTQKPKKIVNAKKDVVNTKMFEELKSRLDTLAQEVALLKEQQALQTVCLKGTKVHMKCFLAFTQTKTFHEASEDCISRGGTLSTPQTGSENDALYEYLRQSVGNEAEIWLGLNGWMEGVGWVDMTGARIAYKNWETEITAQPDGGPPWRWENCAVLSGAANGKWFDKRCRDQLPYICQFGIV 80

Returns the measured ED50 ST486 (cell killing) for the input binder. Input: 71p88P1F2 (designed binder) EPPTQKPKKIVNAKKDVVNTKMFEELKSRLDTLAQEVALLKEQQALQTVCLKGTKVHMKCFLAFTQTKTFHEASEDCISRGGTLSTPQTGSENDALYEYLRQSVGNEAEIWLGLNGWLEGSGWVDMTGARIAYKNWETEITAQPDGGFPARWENCAVLSGAANGKWFDKRCRDQLPYICQFGIV 168
